System: murine L1210 tumor cells
Assay: cytotoxic activity against murine L1210 tumor cells in suspension (3-day cell growth)
Type: cell-based
Details: Mus musculus, 72 h, read-out: L-1210 (3-Day Cell Growth) ID90
outcome_measure: IC90 (ng/mL)

molecule	outcome_measure	result_units	obs_value
CC(=O)N1CC2CC23C1=CC(=O)c1[nH]cc(C)c13 (stereo not drawn) [U-66,664]	IC90	ng/mL	18
Cc1c[nH]c2c1C13CC1CNC3=CC2=O (stereo not drawn) [U-66,777]	IC90	ng/mL	920
Cc1c[nH]c2c1C13CC1CN(C(=O)c1ccc4ccccc4n1)C3=CC2=O (stereo not drawn) [U-68,749]	IC90	ng/mL	8.4
COc1ccc2[nH]c(C(=O)N3CC4CC45C3=CC(=O)c3[nH]cc(C)c35)cc2c1 (stereo not drawn) [U-67,786]	IC90	ng/mL	0.1
Cc1c[nH]c2c1C13CC1CN(C(=O)c1cc4cc(NC(=O)c5ccccc5)ccc4[nH]1)C3=CC2=O (stereo not drawn) [U-68,846]	IC90	ng/mL	0.096
Cc1c[nH]c2c1C13CC1CN(C(=O)c1cc4cc(NC(=O)c5cc6cc(NC(=O)c7ccccc7)ccc6[nH]5)ccc4[nH]1)C3=CC2=O (stereo not drawn) [U-68,880]	IC90	ng/mL	0.019
Cc1c[nH]c2c1C13CC1CN(C(=O)c1ccc[nH]1)C3=CC2=O (stereo not drawn) [U-68,819]	IC90	ng/mL	1.5
CC(=O)N1CC(COS(C)(=O)=O)c2c1cc(O)c1[nH]cc(C)c21 (stereo not drawn) [U-66,665]	IC90	ng/mL	32
Cc1c[nH]c2c1C13CC1CN(C(=O)c1cc4cc(NC(=O)c5cc6ccccc6[nH]5)ccc4[nH]1)C3=CC2=O (stereo not drawn) [U-68,415]	IC90	ng/mL	0.044
Cc1c[nH]c2c1C13CC1CN(C(=O)c1ccccc1)C3=CC2=O (stereo not drawn) [U-66,866]	IC90	ng/mL	4.5
Cc1c[nH]c2c1C13CC1CN(C(=O)c1cc4ccccc4[nH]1)C3=CC2=O (stereo not drawn) [U-66,694]	IC90	ng/mL	0.34
COc1c(O)ccc2cc(C(=O)N3CC4CC45C3=CC(=O)c3[nH]cc(C)c35)[nH]c12 (stereo not drawn) [U-67,785]	IC90	ng/mL	0.19

* * *

System: murine L1210 tumor cells
Test: cytotoxic activity against murine L1210 tumor cells in suspension (3-day cell growth)
Assay type: cell-based
Details: Mus musculus, 72 h, read-out: L-1210 (3-Day Cell Growth) ID50
So basically, if IC50 comes in under 0.5 ng/mL it's Satisfied, and if it's 0.5 ng/mL or more it's Not satisfied.

compound	qualitative_label
Cc1c[nH]c2c1C13CC1CN(C(=O)c1cc4cc(NC(=O)c5cc6cc(NC(=O)c7ccccc7)ccc6[nH]5)ccc4[nH]1)C3=CC2=O (stereo not drawn)	Satisfied
Cc1c[nH]c2c1C13CC1CN(C(=O)c1ccc[nH]1)C3=CC2=O (stereo not drawn)	Satisfied
COc1c(O)ccc2cc(C(=O)N3CC4CC45C3=CC(=O)c3[nH]cc(C)c35)[nH]c12 (stereo not drawn)	Satisfied
Cc1c[nH]c2c1C13CC1CN(C(=O)c1ccc4ccccc4n1)C3=CC2=O (stereo not drawn)	Not satisfied
Cc1c[nH]c2c1C13CC1CN(C(=O)c1cc4cc(NC(=O)c5cc6ccccc6[nH]5)ccc4[nH]1)C3=CC2=O (stereo not drawn)	Satisfied
Cc1c[nH]c2c1C13CC1CN(C(=O)c1cc4cc(NC(=O)c5ccccc5)ccc4[nH]1)C3=CC2=O (stereo not drawn)	Satisfied
CC(=O)N1CC2CC23C1=CC(=O)c1[nH]cc(C)c13 (stereo not drawn)	Not satisfied
Cc1c[nH]c2c1C13CC1CN(C(=O)c1ccccc1)C3=CC2=O (stereo not drawn)	Not satisfied
Cc1c[nH]c2c1C13CC1CN(C(=O)c1cc4ccccc4[nH]1)C3=CC2=O (stereo not drawn)	Satisfied
Cc1c[nH]c2c1C13CC1CNC3=CC2=O (stereo not drawn)	Not satisfied
COc1ccc2[nH]c(C(=O)N3CC4CC45C3=CC(=O)c3[nH]cc(C)c35)cc2c1 (stereo not drawn)	Satisfied
CC(=O)N1CC(COS(C)(=O)=O)c2c1cc(O)c1[nH]cc(C)c21 (stereo not drawn)	Not satisfied
